target: rat orexin-1 receptor (Rattus norvegicus, UniProt P56718); assay: FLIPR Ca2+ Flux Assay, CHO cells expressing rat orexin-1 receptor; type: cell-based; conditions: agonist 70 pM Ala-6,12 human orexin-A, text says rat orexin-1 receptor, read-out: hOX1R FLIPR IC50
Each record here notes measured IC50.

Under rat orexin-1 receptor (Rattus norvegicus, UniProt P56718): IC50 value of `Cc1c(C#N)ccnc1N[C@@H]1CC[C@@H](C)N(C(=O)c2ccccc2-n2ncnn2)C1` ?
1150 nM

Another compound: `Cc1c(C#N)ccnc1N[C@@H]1CC[C@@H](C)N(C(=O)c2ccccc2-n2nccn2)C1`
745 nM

Query compound follows.
Under rat orexin-1 receptor (Rattus norvegicus, UniProt P56718): IC50 value of `COc1c(C#N)ccnc1N[C@@H]1CC[C@@H](C)N(C(=O)c2ccsc2-n2nccn2)C1` ?
827 nM
